These measurements were taken from patent US20210292392A1.

Molecular target: full length spike (S) protein of SARS-CoV-2 (SARS-CoV-2, UniProt P0DTC2 14-1273)
Experiment: cell-based or functional assay
Property Name: Neutralizing activity (%) Mean at 0.6172839 µg/ml
I only need the number, in %, no unit after it.

{"Binder": "P2A-1A9 (antibody, V domains shown) VH: EVQLVESGGGLVQPGRSLRLSCAASGFTFDDYAMHWVRQVPGKGLEWVSGISWNGGIIGYADSVKGRFTISRDNAKTSLYLQMNSLRAEDTALYYCAKVAGRGDYDYYYGMDVWGQGTTVTVSS VL: QSVLTQPPSVSGAPGQRVTISCTGSSSNIGAGYDVHWYQQLPGTAPKLLIYGNNNRPSGVPDRFSGSKSGTSASLAITGLQAEDEADYYCQSYDSSLSGSVFGGGTKLTVLG", "Observed Measurement": 14.3}
{"Binder": "P2B-2F6 (antibody, V domains shown) VH: QVQLQESGPGLVKPSETLSLTCTVSGYSISSGYYWGWIRQPPGKGLEWIGSIYHSGSTYYNPSLKTRVTISVDTSKNQFSLKLSSVTAADTAVYYCARAVVGIVVVPAAGRRAFDIWGQGTMVTVSS VL: QSALTQPPSASGSPGQSVTISCTGTSSDVGGYNYVSWYQQHPGKAPKLMIYEVSKRPSGVPDRFSGSKSGNTASLTVSGLQAEDEADYYCSSYAGSNNLVFGGGTKLTVLG", "Observed Measurement": 81.4}
{"Binder": "P2A-1B3 (antibody, V domains shown) VH: EVQLVESGGGLVQPGGSLRLSCVASGFSFNRYSMNWLRQTPRKGLEWLSYISASGNTIYYADSVRGRFTTSRDNAKNTLYLQMNSLRDDDTAVYFCARPAMVREGTYNWFDPWGQGTLVTVSS VL: EIVLTQSPGTLSLSPGERATLSCRASQSVSNDYLAWYQQKPGQAPRLLIYYASSRATGIPDRFSGSGSGTDFTLTISRLEPGDSAVYYCQQYGDSPPITFGQGTRLEIKR", "Observed Measurement": 23.3}
{"Binder": "P2A-1A8 (antibody, V domains shown) VH: EVQLVESGGDLVQPGRSLRLSCAASGFAFDDYAMHWVRQAPGKGLEWVSGSTWNSGTIAYADSVKGRFTISRDNAKKSLYLQMNSLRTEDTALYYCAKLGGYSDYDYPRPGDHYYGLDVWGQGTTVTVSS VL: QSALTQPASVSGSPGQSITISCTGTSSDVGSYNLVSWYQQHPGKVPKLLIYDVNKRPSGISNRFSGSKSGNTASLTISGLQAEDEADYYCRSYTDSNTYVFGTGTKVTVLG", "Observed Measurement": 16.5}

*Q* Which Neutralizing activity (%) Mean at 0.6172839 µg/ml value belongs to P2B-2G4 (antibody, V domains shown) VH: QVQLVESGGGVVQPGRSLRLSCAASGFTFSSYGMHWVRQAPGKGLEWVAVIWYDGSNKYYADSVKGRFTISRDNSKNTLYLQMNSLRAEDTAVYYCARGAAMVWLDYWGQGTLVTVSS VL: QSALTQPRSVSGSPGQSVTISCTGTSSDVGGYNYVSWYQQHPGKAPKLMIYDVSKRPSGVPDRFSGSKSGNTASLTISGLQAEDEADYYCCSYAGSYTFVVFGGGTKLTVLG ?
*A* 20.2
